Experimental System: Neuropeptide FF receptor 1 (Homo sapiens)
Experiment Description: Displacement of [3H]FFRF-NH2 from human flag-tagged NPFF1 receptor expressed in CHO cells at 500 nM by scintillation counting
Type: cell-based
Non-standard residues stand in square brackets, D forms with d. Residues, ends and D or L forms follow the SMILES beside them. Inp = O=C(O)C1CCNCC1
Property Label: inhibition (%)
State the answer as a number, implicitly in %.

Give inhibition for the following compound: N=C(N)NCCC[C@@H](NC(=O)Cc1ccccc1)C(=O)N[C@@H](Cc1ccccc1)C(N)=O
68

Give inhibition for the following compound: N=C(N)NCCC[C@H](NC(=O)C1CCNCC1)C(=O)N[C@@H](Cc1ccccc1)C(N)=O (H-[Inp]-Arg-Phe-NH2)
26

Give inhibition for the following compound: N=C(N)NCCC[C@H](NC(=O)Cc1ccccc1Cl)C(=O)N[C@@H](Cc1ccccc1)C(N)=O
47

Give inhibition for the following compound: N=C(N)NCCC[C@@H](NC(=O)c1ccc(-c2ccccc2)cc1)C(=O)N[C@H](Cc1ccccc1)C(N)=O
40

Give inhibition for the following compound: N=C(N)NCCC[C@H](NC(=O)/C=C/c1cccc(O)c1)C(=O)N[C@@H](Cc1ccccc1)C(N)=O
21

Give inhibition for the following compound: N=C(N)NCCC[C@@H](NC(=O)/C=C/c1ccccc1)C(=O)N[C@@H](Cc1ccccc1)C(N)=O
84

Give inhibition for the following compound: N=C(N)NCCC[C@H](NC(=O)c1ccco1)C(=O)N[C@@H](Cc1ccccc1)C(N)=O
42

# context switch: different compound, same inhibition
Give inhibition for the following compound: N=C(N)NCCC[C@H](NC(=O)c1ccc(Cl)cc1)C(=O)N[C@@H](Cc1ccccc1)C(N)=O
37

* * *

inhibition values by entry
Experimental System: UniProt:Q9Y5X5
Experiment Description: Displacement of [3H]FFRF-NH2 from human flag-tagged NPFF2 receptor expressed in CHO cells at 500 nM by scintillation counting
Assay type: cell-based
Non-standard residues stand in square brackets, D forms with d. Residues, ends and D or L forms follow the SMILES beside them. Inp = O=C(O)C1CCNCC1
State the answer as a number, implicitly in %.

// below: answered molecules
Give inhibition for the following molecule: N=C(N)NCCC[C@H](NC(=O)c1ccc(O)c(O)c1)C(=O)N[C@@H](Cc1ccccc1)C(N)=O
0

Give inhibition for the following molecule: N=C(N)NCCC[C@H](NC(=O)c1cccc2ccccc12)C(=O)N[C@@H](Cc1ccccc1)C(N)=O
37

Next:
Give inhibition for the following molecule: CCCCCC(=O)N[C@@H](CCCNC(=N)N)C(=O)N[C@@H](Cc1ccccc1)C(N)=O
30

Give inhibition for the following molecule: N=C(N)NCCC[C@H](NC(=O)C1CCNCC1)C(=O)N[C@@H](Cc1ccccc1)C(N)=O (H-[Inp]-Arg-Phe-NH2)
19

Give inhibition for the following molecule: COc1ccc(CC(=O)N[C@@H](CCCNC(=N)N)C(=O)N[C@@H](Cc2ccccc2)C(N)=O)cc1
14

Give inhibition for the following molecule: N=C(N)NCCC[C@H](NC(=O)Cc1ccccc1O)C(=O)N[C@@H](Cc1ccccc1)C(N)=O
16

* * *

Experimental System: Neuropeptide FF receptor 1 (Homo sapiens, UniProt Q9GZQ6)
Sequence (Q9GZQ6 whole entry): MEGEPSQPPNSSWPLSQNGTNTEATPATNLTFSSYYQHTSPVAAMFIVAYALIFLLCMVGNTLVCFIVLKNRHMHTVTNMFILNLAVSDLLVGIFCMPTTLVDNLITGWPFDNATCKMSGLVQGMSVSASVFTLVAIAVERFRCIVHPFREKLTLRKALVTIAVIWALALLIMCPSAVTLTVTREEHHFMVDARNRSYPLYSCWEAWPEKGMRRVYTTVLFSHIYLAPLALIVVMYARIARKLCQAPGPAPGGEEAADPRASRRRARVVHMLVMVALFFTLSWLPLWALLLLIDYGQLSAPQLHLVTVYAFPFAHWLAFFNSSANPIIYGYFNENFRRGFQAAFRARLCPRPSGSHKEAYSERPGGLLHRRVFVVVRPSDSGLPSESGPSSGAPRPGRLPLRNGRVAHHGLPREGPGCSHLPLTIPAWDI
Experiment Description: Displacement of [3H]FFRF-NH2 from human flag-tagged NPFF1 receptor expressed in CHO cells at 500 nM by scintillation counting
Type: cell-based
Property Label: inhibition (%)
State the answer as a number, implicitly in %.

Give inhibition for the following compound: N=C(N)NCCC[C@H](NC(=O)c1cc2ccccc2[nH]1)C(=O)N[C@@H](Cc1ccccc1)C(N)=O
26

Give inhibition for the following compound: N=C(N)NCCC[C@H](NC(=O)/C=C/c1ccccc1)C(=O)N[C@@H](Cc1ccccc1)C(N)=O
3

Give inhibition for the following compound: N=C(N)NCCC[C@H](NC(=O)c1cccc(-c2ccccc2)c1)C(=O)N[C@@H](Cc1ccccc1)C(N)=O
26

Next:
Give inhibition for the following compound: N=C(N)NCCC[C@H](NC(=O)c1cccc2ccccc12)C(=O)N[C@@H](Cc1ccccc1)C(N)=O
40

Give inhibition for the following compound: N=C(N)NCCC[C@H](NC(=O)c1ccc2nc[nH]c2c1)C(=O)N[C@@H](Cc1ccccc1)C(N)=O
9

* * *

Experimental System: UniProt:Q9GZQ6
Experiment Description: Displacement of [3H]FFRF-NH2 from human flag-tagged NPFF1 receptor expressed in CHO cells at 500 nM by scintillation counting
Assay type: cell-based
Property Label: inhibition (%)
State the answer as a number, implicitly in %.

// below: answered molecules
Find the measured inhibition of COc1ccc(C(=O)N[C@@H](CCCNC(=N)N)C(=O)N[C@@H](Cc2ccccc2)C(N)=O)cc1OC with UniProt:Q9GZQ6 as test system.
13

Find the measured inhibition of N=C(N)NCCC[C@H](NC(=O)c1ccccc1)C(=O)N[C@@H](Cc1ccccc1)C(N)=O with UniProt:Q9GZQ6 as test system.
66

Next:
Find the measured inhibition of N=C(N)NCCC[C@H](NC(=O)CCN1c2ccccc2Sc2ccccc21)C(=O)N[C@@H](Cc1ccccc1)C(N)=O with UniProt:Q9GZQ6 as test system.
100

Find the measured inhibition of N=C(N)NCCC[C@@H](NC(=O)c1ccccc1-c1ccccc1)C(=O)N[C@@H](Cc1ccccc1)C(N)=O with UniProt:Q9GZQ6 as test system.
89

Find the measured inhibition of N=C(N)NCCC[C@H](NC(=O)c1ccc(Cl)c(Cl)c1)C(=O)N[C@@H](Cc1ccccc1)C(N)=O with UniProt:Q9GZQ6 as test system.
25

Find the measured inhibition of COc1ccc(/C=C/C(=O)N[C@@H](CCCNC(=N)N)C(=O)N[C@@H](Cc2ccccc2)C(N)=O)cc1 with UniProt:Q9GZQ6 as test system.
35

Find the measured inhibition of N=C(N)NCCC[C@H](NC(=O)Cc1ccccc1)C(=O)N[C@@H](Cc1ccccc1)C(N)=O with UniProt:Q9GZQ6 as test system.
26

Find the measured inhibition of N=C(N)NCCC[C@H](NC(=O)c1cccc(C(=O)c2ccccc2)c1)C(=O)N[C@@H](Cc1ccccc1)C(N)=O with UniProt:Q9GZQ6 as test system.
15

* * *

inhibition values by entry
Experimental System: Neuropeptide FF receptor 1 (Homo sapiens, UniProt Q9GZQ6)
Experiment Description: Displacement of [3H]FFRF-NH2 from human flag-tagged NPFF1 receptor expressed in CHO cells at 5 uM by scintillation counting
Assay type: cell-based
State the answer as a number, implicitly in %.

Find the measured inhibition of N=C(N)NCCC[C@H](NC(=O)c1ccc2ccccc2c1)C(=O)N[C@@H](Cc1ccccc1)C(N)=O with Neuropeptide FF receptor 1 (Homo sapiens, UniProt Q9GZQ6) as test system.
81

Next:
Find the measured inhibition of N=C(N)NCCC[C@@H](NC(=O)c1ccc(-c2ccccc2)cc1)C(=O)N[C@@H](Cc1ccccc1)C(N)=O with Neuropeptide FF receptor 1 (Homo sapiens, UniProt Q9GZQ6) as test system.
92

Find the measured inhibition of N=C(N)NCCC[C@H](NC(=O)Cc1ccccc1)C(=O)N[C@@H](Cc1ccccc1)C(N)=O with Neuropeptide FF receptor 1 (Homo sapiens, UniProt Q9GZQ6) as test system.
82

Find the measured inhibition of N=C(N)NCCC[C@H](NC(=O)c1cccc(Cl)c1)C(=O)N[C@@H](Cc1ccccc1)C(N)=O with Neuropeptide FF receptor 1 (Homo sapiens, UniProt Q9GZQ6) as test system.
84

Find the measured inhibition of N=C(N)NCCC[C@@H](NC(=O)Cc1ccccc1)C(=O)N[C@H](Cc1ccccc1)C(N)=O with Neuropeptide FF receptor 1 (Homo sapiens, UniProt Q9GZQ6) as test system.
78

Find the measured inhibition of N=C(N)NCCC[C@@H](NC(=O)c1ccccc1-c1ccccc1)C(=O)N[C@@H](Cc1ccccc1)C(N)=O with Neuropeptide FF receptor 1 (Homo sapiens, UniProt Q9GZQ6) as test system.
97

* * *

Experimental System: Neuropeptide FF receptor 2 (Homo sapiens)
Sequence (Q9Y5X5 whole entry): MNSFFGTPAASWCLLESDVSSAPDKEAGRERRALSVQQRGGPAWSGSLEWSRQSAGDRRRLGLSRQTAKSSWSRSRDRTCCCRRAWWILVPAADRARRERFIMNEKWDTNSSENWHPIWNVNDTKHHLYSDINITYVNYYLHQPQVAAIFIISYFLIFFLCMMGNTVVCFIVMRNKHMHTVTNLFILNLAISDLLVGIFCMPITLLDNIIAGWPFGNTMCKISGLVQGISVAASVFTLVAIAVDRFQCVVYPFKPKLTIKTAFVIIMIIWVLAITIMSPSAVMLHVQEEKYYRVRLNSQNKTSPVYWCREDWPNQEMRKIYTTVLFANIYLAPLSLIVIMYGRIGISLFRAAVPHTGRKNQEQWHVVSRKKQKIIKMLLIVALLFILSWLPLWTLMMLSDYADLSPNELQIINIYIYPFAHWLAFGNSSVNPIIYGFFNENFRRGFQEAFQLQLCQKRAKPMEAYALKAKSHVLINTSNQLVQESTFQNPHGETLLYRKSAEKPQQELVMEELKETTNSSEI
Experiment Description: Displacement of [3H]FFRF-NH2 from human flag-tagged NPFF2 receptor expressed in CHO cells at 5 uM by scintillation counting
Type: cell-based
Property Label: inhibition

Find the measured inhibition of CCCCCC(=O)N[C@@H](CCCNC(=N)N)C(=O)N[C@@H](Cc1ccccc1)C(N)=O with Neuropeptide FF receptor 2 (Homo sapiens) as test system.
53%

Find the measured inhibition of N=C(N)NCCC[C@H](NC(=O)c1nc2ccccc2[nH]1)C(=O)N[C@@H](Cc1ccccc1)C(N)=O with Neuropeptide FF receptor 2 (Homo sapiens) as test system.
49%

Find the measured inhibition of N=C(N)NCCC[C@H](NC(=O)c1cccnc1)C(=O)N[C@@H](Cc1ccccc1)C(N)=O with Neuropeptide FF receptor 2 (Homo sapiens) as test system.
23%

Find the measured inhibition of N=C(N)NCCC[C@H](NC(=O)c1ccc(Cl)c(Cl)c1)C(=O)N[C@@H](Cc1ccccc1)C(N)=O with Neuropeptide FF receptor 2 (Homo sapiens) as test system.
67%

Find the measured inhibition of N=C(N)NCCC[C@H](NC(=O)c1ccc2cc[nH]c2c1)C(=O)N[C@@H](Cc1ccccc1)C(N)=O with Neuropeptide FF receptor 2 (Homo sapiens) as test system.
70%

Find the measured inhibition of N=C(N)NCCC[C@@H](NC(=O)c1ccccc1)C(=O)N[C@H](Cc1ccccc1)C(N)=O with Neuropeptide FF receptor 2 (Homo sapiens) as test system.
30%

Find the measured inhibition of N=C(N)NCCC[C@@H](NC(=O)C(c1ccccc1)c1ccccc1)C(=O)N[C@@H](Cc1ccccc1)C(N)=O with Neuropeptide FF receptor 2 (Homo sapiens) as test system.
100%

Find the measured inhibition of N=C(N)NCCC[C@@H](NC(=O)/C=C/c1ccccc1)C(=O)N[C@H](Cc1ccccc1)C(N)=O with Neuropeptide FF receptor 2 (Homo sapiens) as test system.
14%
